The next entries give measured pKd for TNFα trimer (Homo sapiens).
pKd: −log10 of the molar value.

Cc1nc2cc(F)c(-c3cnc(OCCCCCn4cc(COCCOCCNC(=O)CC[C@H](NC(=O)c5ccc(NCc6cnc7nc(N)nc(O)c7n6)cc5)C(=O)O)nn4)nc3)nc2c(N[C@H](C)c2cc(C#N)ccc2F)c1Cl | > 7.00

Value of measured pKd for the entry Cc1nc2cc(F)c(-c3cnc(OCCCCCn4cc(COCCOCCOCCOCCOCCOCCNC(=O)CC[C@H](NC(=O)c5ccc(NCc6cnc7nc(N)nc(O)c7n6)cc5)C(=O)O)nn4)nc3)nc2c(N[C@H](C)c2cc(C#N)ccc2F)c1Cl : > 7.00

Cited source for all entries: patent US20250127913A1
